assay: NCI Yeast Anticancer Drug Screen. Data for the cln2 rad14 strain (AID 165);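 also: 0% = growth equal to vehicle treated cultures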; conditions: S. cerevisiae cln2 rad14 strain, at 5.0 µM (retest, dose inferred, filed as 0.5), active compounds read high
About 79,000 compounds went through this panel and 15% of them were active in at least one assay; those are over-represented in the sample as a whole.

- compound: "C/C=C(\\C)C(=O)O[C@@H]1CC(C)(C)CC2C3=CCC4[C@]56CC[C@](O)(OC5)C(C)(C)C6CC[C@@]4(C)C3(C)CC[C@]21C(=O)O (some centres not stated)"
  growth inhibition, %: 73
- compound: "CC(=O)NC1=C(Oc2ccccc2)C(=O)c2ccccc2C1=O"
  growth inhibition, %: 89
- compound: "CN(C)CCC(/C=C/c1ccccc1)=N\\Nc1ccc(Cl)cc1Cl"
  growth inhibition, %: 66
- compound: "O=C(Nc1ccccc1)c1ccc(Cl)cc1Cl"
  growth inhibition, %: 31
- compound: "CCOC(=O)c1cnc(SCc2ccc(Cl)cc2Cl)nc1Cl"
  growth inhibition, %: -3
- compound: "CCS(CC)(CC)CC1CCCC2=CCC(P(=O)(c3ccccc3)c3ccccc3)CC21 (configuration not stated)"
  growth inhibition, %: 5
- compound: "Cc1occc1C(=S)Nc1ccc(Cl)c(C(=O)OCC(C)C)c1"
  growth inhibition, %: 25
- compound: "C[N+](C)=c1ccc2nc3c(cc(NCCCNc4cc5oc6cc(=[N+](C)C)ccc-6nc5c5ccccc45)c4ccccc43)oc-2c1"
  growth inhibition, %: -29
- compound: "O=[N+]([O-])c1ccc(Oc2c(Cl)cccc2Cl)cc1"
  growth inhibition, %: -9
- compound: "CN(C)CCC(/C=C/c1ccccc1)=N\\Nc1c(F)c(F)c(F)c(F)c1F"
  growth inhibition, %: -3
- compound: "CCCCCC=C(c1cc(Br)cc(C(=O)O)c1O)c1cc(Br)cc(C(=O)O)c1O"
  growth inhibition, %: 2
- compound: "C=C1CC(c2ccc(OCCCN3C(=O)c4ccccc4C3=O)c(OC)c2)OC1=O (configuration not stated)"
  growth inhibition, %: 11
- compound: "O=C(NCCc1c(-c2ccccc2)[nH]c2ccccc12)C(F)(F)F"
  growth inhibition, %: -2
- compound: "CN(C(=S)c1ccccc1)c1ccccc1"
  growth inhibition, %: -61
- compound: "Cn1c2c(c3ccccc31)CCN1C[C@@H]3CCCC[C@H]3C[C@@H]21"
  growth inhibition, %: 6
- compound: "Cc1c2ccccc2c(C)c2c1ccc1ccccc12"
  growth inhibition, %: 60
- compound: "O=[N+]([O-])c1ccc(NSc2ccccc2)cc1"
  growth inhibition, %: 21
- compound: "C/C(=N\\NC(=S)N1CCN(c2ccccn2)CC1)c1ccccn1"
  growth inhibition, %: 21
- compound: "Brc1ccc(C2SCc3nc4ccccc4n32)cc1 (configuration not stated)"
  growth inhibition, %: -10
- compound: "CCCCCCN(CCCCCC)CC(O)c1cc(-c2ccccc2)nc2c(O)cccc12 (configuration not stated)"
  growth inhibition, %: 4
- compound: "CCCCOc1c(OCCCC)c(=O)c1=O"
  growth inhibition, %: 37
- compound: "O=C1C(=O)N(c2cc(Cl)ccc2Cl)C(=O)C(=O)C1c1nc2ccccc2o1"
  growth inhibition, %: 10
- compound: "Cc1ccc2c(c1)C1(C)C=C(CN3CCN(C)CC3)C(=O)CC1O2 (configuration not stated)"
  growth inhibition, %: -4
- compound: "CC(C)CC(NC(=O)COc1c(Cl)cc(Cl)c(Cl)c1Cl)C(=O)O (configuration not stated)"
  growth inhibition, %: 4
- compound: "O=S(O)CCCCCSSc1ccccc1"
  growth inhibition, %: -9
- compound: "CCc1cc2c([nH]c3ccccc32)c(C)c1CCN(C)C"
  growth inhibition, %: -11
- compound: "CCCCN(CCCC)CCCCNc1ccc(C)c2sc3ccccc3c(=O)c12"
  growth inhibition, %: 18
- compound: "CCN(CC)CC(O)CNc1ccc(C)c2sc3ccccc3c(=O)c12 (configuration not stated)"
  growth inhibition, %: 12
- compound: "Cc1ccc(NC(=O)CSC(N)=O)cc1"
  growth inhibition, %: 2
- compound: "CSC(=S)N/N=C(\\C)c1nccnc1C"
  growth inhibition, %: -10
- compound: "CC(C)OC(=O)c1cc([N+](=O)[O-])cc([N+](=O)[O-])c1Sc1ncnc2nc[nH]c12"
  growth inhibition, %: 44
- compound: "CCN(CC)CCNc1ccc2nnn3c4ccc([N+](=O)[O-])cc4c(=O)c1c23"
  growth inhibition, %: 24
- compound: "Cn1c(N)c(NC(=O)CCl)c(=O)n(C)c1=O"
  growth inhibition, %: 1
- compound: "Cc1cc(I)cc(I)c1O"
  growth inhibition, %: 4
- compound: "COC(=O)c1ncc(Cl)cc1Cl"
  growth inhibition, %: 7
- compound: "Cc1ccc(S(=O)(=O)N2CCN3C(=O)c4ccccc4C32c2ccc(F)cc2)cc1 (configuration not stated)"
  growth inhibition, %: 28
- compound: "CCOC(=O)c1c(-c2ccccc2)csc1NC(=O)CBr"
  growth inhibition, %: 3
- compound: "COc1ccc(C2C3=C(CCCC3=O)Oc3cc4c(cc32)OCO4)cc1 (configuration not stated)"
  growth inhibition, %: 22
- compound: "CCOC(=O)c1c(I)[nH]c(I)c1C"
  growth inhibition, %: -1
- compound: "O=[N+]([O-])c1ccc(Cc2nc3ccccc3s2)cc1"
  growth inhibition, %: 32
- compound: "Cc1c2cc(Cl)ccc2cc2c1ccc1ccccc12"
  growth inhibition, %: -3
- compound: "O=C(O)CC1(C(=O)O)CCCCC1"
  growth inhibition, %: 6
- compound: "CCC1(C)CCC2(C)C(CCC3C4(C)CCCC32OC4=O)C1 (configuration not stated)"
  growth inhibition, %: -9
- compound: "Nc1ccc2nc3c(nc2c1)C(=O)c1ccccc1-3"
  growth inhibition, %: 32
- compound: "O=C(Oc1cccc2cccnc12)c1ccccc1"
  growth inhibition, %: 2
- compound: "O=C1Nc2ccccc2/C1=N\\N=c1/scc(-c2ccccc2)n1-c1ccccc1"
  growth inhibition, %: 10
- compound: "COc1ccc(/C=c2\\sc3nnc(CCC(=O)Nc4cccc(C(F)(F)F)c4)n3c2=O)cc1"
  growth inhibition, %: 1

###

Assay: NCI Yeast Anticancer Drug Screen. Data for the bub3 strain (AID 167)
Details: S. cerevisiae bub3 mutant strain, at 50.0 µM (retest, dose inferred, filed as 5.0)
Procedure: Growth inhibition of yeast strains with defined genetic alterations is measured as a screen for potential anti-cancer activity. Selected strains with alterations in DNA damage repair or cell cycle control were exposed to compounds and growth inhibition was measured relative to vehicle treated controls. The strain used in this assay is bub3
This is part of a sample that, as a whole, favours compounds with a hit. Of some 79,000 tested, about 15% had one in any assay. The source made the active and inactive calls. No stated cut-off is given here; in the data, active means growth inhibition above about 70%; inactive means the rest.
Outcomes: YES for active, NO for inactive

- compound: "C(=N\\Nc1ccc2ccccc2n1)/c1ccccn1.CC(=O)[O-].CC(=O)[O-].[Zn+2]"
  group label: "NO"
- compound: "CCNC(=S)NNC(=S)NNc1ccccc1"
  group label: "YES"
- compound: "CC(C)CNc1cc(Cl)nc(N)n1"
  group label: "NO"
- compound: "CS(=O)(=O)c1nc(Cl)c(Cl)c(C#N)c1Cl"
  group label: "YES"
- compound: "CCOC(=O)C(=O)Nc1ccc(Cl)cc1Cl"
  group label: "NO"
- compound: "CC(C)(C)C(=O)CC(=O)C(F)(F)C(F)(F)C(F)(F)F.CC(C)(C)C(=O)CC(=O)C(F)(F)C(F)(F)C(F)(F)F.CC(C)(C)C(=O)CC(=O)C(F)(F)C(F)(F)C(F)(F)F.[Fe]"
  group label: "NO"
- compound: "O=CNc1ccc2c(c1)Cc1cc(NC=O)ccc1-2"
  group label: "NO"
- compound: "CC(=O)Nc1ccc2c(c1)/C(=N/O)c1ccccc1-2"
  group label: "YES"
- compound: "Nc1ccc(Cc2ccc(N)cc2[N+](=O)[O-])c([N+](=O)[O-])c1"
  group label: "NO"
- compound: "CCOC(=O)C(CO)c1nc2c([nH]c1=O)c(=O)n(C)c(=O)n2C (stereo unspecified)"
  group label: "NO"
- compound: "CCOC1=C(NC(C)=O)C(=O)c2ccccc2C1=O"
  group label: "YES"

###

assay: NCI Yeast Anticancer Drug Screen. Data for the sgs1 mgt1 strain (AID 161);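 also: 0% = growth of cultures given vehicle only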; conditions: S. cerevisiae sgs1 mgt1 strain, at 5.0 µM (retest, dose inferred, filed as 0.5), active compounds read high
The panel holds about 79,000 compounds, 15% with a hit somewhere; the sample as a whole holds those more often.
List of growth inhibition values.
measured property: growth inhibition (%)

- compound: "C[Si](C)(c1ccccc1)C1CC(=O)CC(=O)C1"
  measured property: "growth inhibition"
  scale unit: "%"
  measurement: 47
- compound: "CCOP(=O)(OCC)/C(=C\\NC(=S)N=Nc1c(O)[nH]c2ccccc12)C(=O)OC"
  measured property: "growth inhibition"
  scale unit: "%"
  measurement: 6
- compound: "CCOC(=O)c1csc(/C=C/c2cc(OC)c(OC)c(OC)c2)n1"
  measured property: "growth inhibition"
  scale unit: "%"
  measurement: -2
- compound: "OCCCNc1nc2ccc(Cl)cc2c2ccccc12"
  measured property: "growth inhibition"
  scale unit: "%"
  measurement: 6
- compound: "CC(C)CC(NC(=O)COc1c(Cl)cc(Cl)c(Cl)c1Cl)C(=O)O (centres undefined)"
  measured property: "growth inhibition"
  scale unit: "%"
  measurement: -1
- compound: "COc1cccnc1/C=N/NC(N)=S"
  measured property: "growth inhibition"
  scale unit: "%"
  measurement: -4
- compound: "C/C(CCSCc1ccccc1)=N/NC(N)=S"
  measured property: "growth inhibition"
  scale unit: "%"
  measurement: 6
- compound: "CCOC(=O)c1c(-c2ccccc2)csc1NC(=O)CBr"
  measured property: "growth inhibition"
  scale unit: "%"
  measurement: 30
- compound: "Cc1ccsc1/C=N/Nc1ccc2ccccc2n1"
  measured property: "growth inhibition"
  scale unit: "%"
  measurement: 44
- compound: "CC(=O)/C=C1\\C(=O)Nc2ccccc21"
  measured property: "growth inhibition"
  scale unit: "%"
  measurement: 16
- compound: "CCCCCCCCCCCCCCCC[N+](C)(CCO)Cc1cnc[nH]1 (centres undefined)"
  measured property: "growth inhibition"
  scale unit: "%"
  measurement: 98
- compound: "Cc1ccc(S(=O)(=O)n2c3c(c4ccccc42)CCN2C(=O)C(S(=O)(=O)c4ccccc4)=CCC32)cc1 (centres undefined)"
  measured property: "growth inhibition"
  scale unit: "%"
  measurement: 74
- compound: "CNC(=O)OC(C)CN1c2ccccc2Sc2ccc(Cl)cc21 (centres undefined)"
  measured property: "growth inhibition"
  scale unit: "%"
  measurement: 2
- compound: "CCCCCCCCCCCCCCCCNC(=S)N/C=C(/C#N)C(=O)OC"
  measured property: "growth inhibition"
  scale unit: "%"
  measurement: 39
- compound: "COC(CCC[N+](C)(C)C)CC[N+](C)(C)C (centres undefined)"
  measured property: "growth inhibition"
  scale unit: "%"
  measurement: -7
- compound: "CC(=O)N1CCC(Cc2ccccc2)CC1"
  measured property: "growth inhibition"
  scale unit: "%"
  measurement: -49
- compound: "C=C(c1ccccc1)[N+](=O)[O-]"
  measured property: "growth inhibition"
  scale unit: "%"
  measurement: 59
- compound: "C/C(=N/Nc1ccc([N+](=O)[O-])cc1[N+](=O)[O-])C1=CCC(C(C)(C)C)CC1 (centres undefined)"
  measured property: "growth inhibition"
  scale unit: "%"
  measurement: -5
- compound: "O=C(O)CCCc1ccc2c(c1Br)C=CC2"
  measured property: "growth inhibition"
  scale unit: "%"
  measurement: 11
- compound: "CN(C)c1ccc(/C=C\\c2c3ccccc3cc[n+]2[O-])cc1"
  measured property: "growth inhibition"
  scale unit: "%"
  measurement: 0
- compound: "O=[N+]([O-])c1ccc(-[n+]2ccc3ccccc3c2)c([N+](=O)[O-])c1"
  measured property: "growth inhibition"
  scale unit: "%"
  measurement: 11
- compound: "c1ccc(NCCSc2nc3ccccc3s2)cc1"
  measured property: "growth inhibition"
  scale unit: "%"
  measurement: 2
- compound: "CCOC(=O)CCC(NC(=O)c1ccc(NC(OC)c2nc3cc(C(F)(F)F)ccc3nc2-c2ccccc2)cc1)C(=O)OCC (centres undefined)"
  measured property: "growth inhibition"
  scale unit: "%"
  measurement: 90
- compound: "COc1ccc(C(=O)C(CN2CCCC2)CN2CCCC2)cc1"
  measured property: "growth inhibition"
  scale unit: "%"
  measurement: -5
